Some molecules, each annotated with its measured inhibition.
Biological target: Glucose transporter (Leishmania mexicana) (UniProt O61059)
Assay: ST_JUDE_LEISH: Cytotoxicity at 2uM final concentration against transgenic Leishmania Mexicana promastigotes LmGT2 that are glucose transport deficient and complemented with the L. Mexicana glucose transporter 2. Activity is measured by DNA content using SYBR green in vitro
Assay type: functional
value_type: inhibition (%)

>  <molecule>
COc1ccc2nccc(N3CCC(NCCNCc4ccc5c(n4)NC(=O)CS5)C3)c2n1 (centres undefined)

>  <value_type>
inhibition

>  <uom>
%

>  <observed_value>
4.55

$$$$
>  <molecule>
Cn1nccc1C(=O)NCCNCc1cccc(-c2ccc(-c3nc4cc(C(F)(F)F)ccc4[nH]3)cc2)c1

>  <value_type>
inhibition

>  <uom>
%

>  <observed_value>
-2.04

$$$$
>  <molecule>
O=C(/C=C/c1ccc(Cl)c(Cl)c1)NCCCCN1CCCN(C(=O)Nc2cc(Cl)cc(Cl)c2)CC1

>  <value_type>
inhibition

>  <uom>
%

>  <observed_value>
0.06

$$$$
>  <molecule>
COCCNc1nc(N2CCC(CNC(=O)c3ccc(-c4ccc(C(=O)N(C)C)cc4C)cc3)CC2)nc2cc(OC)c(OC)cc12

>  <value_type>
inhibition

>  <uom>
%

>  <observed_value>
1.17

$$$$
>  <molecule>
Cc1nnsc1C(=O)Nc1ccc(-c2cccc(-c3nc4cccc(C)c4[nH]3)c2)cc1

>  <value_type>
inhibition

>  <uom>
%

>  <observed_value>
5.18

$$$$
>  <molecule>
COc1ccc(CCc2ccc(-c3c(C)[nH]c(C)c(Cl)c3=O)cc2)cc1

>  <value_type>
inhibition

>  <uom>
%

>  <observed_value>
1.05

$$$$
>  <molecule>
CC1CCCN(c2ccc(NC(=O)c3cccs3)cc2[N+](=O)[O-])C1 (centres undefined)

>  <value_type>
inhibition

>  <uom>
%

>  <observed_value>
-1.43

$$$$
>  <molecule>
C=CCC(CC=C)N1C(=O)C(c2ccccc2)(c2ccccc2)N=C1N

>  <value_type>
inhibition

>  <uom>
%

>  <observed_value>
0.62

$$$$
>  <molecule>
CCn1c(-c2nonc2N)nc2c(-c3ccccc3)ncc(OCCCNCCCN3CCOCC3)c21

>  <value_type>
inhibition

>  <uom>
%

>  <observed_value>
0.55

$$$$

Origin of measurements: ChEMBL document CHEMBL3433997
